denaturant midpoint (higher = more stable) listing for selected variants.
B1: Ribonuclease, P00648 (parent)
chain: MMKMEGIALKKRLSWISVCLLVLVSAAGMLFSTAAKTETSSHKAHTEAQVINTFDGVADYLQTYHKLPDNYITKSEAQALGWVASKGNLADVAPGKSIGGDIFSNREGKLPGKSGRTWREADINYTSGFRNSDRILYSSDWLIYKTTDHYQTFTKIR

variants of: B1; details: Bacillus amyloliquefaciens; pH 6.3; 25 °C; Urea; Fluorescence; MES 100 mM; reversible: yes; structure 1BNI; whole UniProt chain shown
Express your answer in M, writing the number without its unit.

Consider the reported denaturant midpoint (higher = more stable) for these variants:
The variant identified as D122N registered its denaturant midpoint (higher = more stable) at 2.08

The variant identified as R130Q registered its denaturant midpoint (higher = more stable) at 3.51

The variant identified as D140N registered its denaturant midpoint (higher = more stable) at 2.44

The variant identified as R116S registered its denaturant midpoint (higher = more stable) at 3.16

The variant identified as R116M registered its denaturant midpoint (higher = more stable) at 3.47

# input for lookup
The variant identified as R130K registered its denaturant midpoint (higher = more stable) at 2.43
